- Tested on: K. pneumoniae M6
- Assay protocol: MIC, microdilution broth method
- Format: cell-based, Klebsiella pneumoniae
- Measurement setup: Klebsiella pneumoniae, M6, +PMBN (30 μg/mL); ciprofloxacin-sensitive strain (S)
# maps each entry to its MIC
API: value field is a number in µg/mL; no unit string.

Below, 3 molecules whose answers are already recorded.
| Molecule | Units label | MIC |
| --- | --- | --- |
| CCn1cc(C(=O)O)c(=O)c2cc(F)c(N3CCNCC3)cc21 [Compound 6b, norfloxacin, reference compound] | µg/mL | 0.5 |
| O=C(O)c1cn(Cc2ccccc2)c2cc(N3CCNCC3)c(F)cc2c1=O | µg/mL | 1 |
| O=C(O)c1cn(-c2cccc3ccsc23)c2cc(N3CCNCC3)c(F)cc2c1=O | µg/mL | 2 |

// next item, MIC requested
Value lookup for MIC; key = O=C(O)c1cn(-c2cccc3ccoc23)c2cc(N3CCNCC3)c(F)cc2c1=O 0.5
